Biological target: 17β-HSD10 (Homo sapiens, UniProt Q99714)
Construct: Histev (histidine tag with TEV site) (N, cleaved yes); made in house; host or cells: E. coli BL21-CodonPlus
Sequence (Q99714 1-261): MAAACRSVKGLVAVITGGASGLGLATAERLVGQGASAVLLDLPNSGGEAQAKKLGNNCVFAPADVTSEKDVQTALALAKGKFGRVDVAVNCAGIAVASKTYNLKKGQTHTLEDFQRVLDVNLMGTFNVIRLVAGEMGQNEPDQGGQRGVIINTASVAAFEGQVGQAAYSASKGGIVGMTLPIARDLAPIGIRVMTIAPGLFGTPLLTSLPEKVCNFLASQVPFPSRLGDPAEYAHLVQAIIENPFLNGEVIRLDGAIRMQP
Assay: 17β-HSD10 (ABAD) enzyme inhibition assay, NADH oxidation read at 340 nm (primary screen and dose response)
Type: biochemical
Settings: recombinant 17βHSD10 enzyme assay, curve fit
assayReadout: Hill Slope

In: What does the record list as Hill Slope for Cc1ccsc1C(=O)N1CCC[C@@H]1c1ccccc1-c1ccc(C2CC2)cc1 ?
Out: 1.6

In: Next entry: COc1ccc(-c2ccccc2[C@@H]2CCCN2C(=O)c2sccc2C)cc1 (single isomer, unassigned)
Out: 1

In: Also, Cc1ccccc1C(=O)N(CC(C)C)c1cccc(N(C)Cc2c[nH]cn2)c1 please.
Out: 1

In: Record: CC(C)CN(C(=O)c1ccccc1F)c1cccc(N(C)Cc2ccn[nH]2)c1 [ESC1002206]
Out: 0.93

In: Consider next the compound CC(C)CN(C(=O)c1ccccc1F)c1cccc(N(C)Cc2c[nH]c(C3CC3)n2)c1 in the same way.
Out: 1.2

In: Check COc1ccccc1-c1ccccc1[C@@H]1CCCN1C(=O)c1sccc1C too.
Out: 0.87

In: Then CC(C)CN(C(=O)c1ccc(Cl)cc1)c1cccc(N(C)Cc2cnc[nH]2)c1 ?
Out: 1.2

In: Now consider COc1cccc(-c2ccccc2[C@H]2CCCN2C(=O)c2sccc2F)c1 .
Out: 1.5

In: Another: CC(C)CN(C(=O)c1ccccc1F)c1cccc(N(CCO)Cc2c[nH]cn2)c1
Out: 1.1

In: Also check Cc1ccc(C(=O)N(c2cccc(N(C)Cc3cnc[nH]3)c2)C(C)C)cc1
Out: 0.9

In: Next entry: Cc1ccsc1C(=O)N(CC(C)C)c1cccc(N(C)Cc2c[nH]cn2)c1
Out: 1.4

In: Can you handle CC(C)CN(C(=O)c1ccccc1F)c1cccc(N(C)Cc2cn[nH]c2I)c1 next?
Out: 1

In: // query: CCCCN(C(=O)c1ccccc1F)c1cccc(N(C)Cc2c[nH]cn2)c1
Out: 1.2
